- system: NaV1.1 (Homo sapiens (Human))
- test_name: Sodium Influx Assay (Flux), NaV1.1
- Assay type: cell-based
- condition_summary: Trex HEK293 cells, ANG2 dye; arithmetic mean
Where a name gives a salt, the structure may show the parent alone.
Exam item: assign label 1 to entries whose IC50 is below 9 µM and label 0 to entries at or above 9 µM. Note that a value of exactly 9 µM receives label 0.

Hi there! Is IC50 for Cc1c(N(C)[C@H]2CCN(Cc3cccc(F)c3F)C2)cc(F)c(S(=O)(=O)Nc2cscn2)c1F [Example 237, formate] below 9 µM, do you know?
label 1

Hi there! Is IC50 for O=S(=O)(Nc1cccc(F)n1)c1cc(Cl)c(OC2CCN(Cc3ccccc3)CC2)cc1F [Example 78, 2,2,2-trifluoroacetate] below 9 µM, do you know?
label 1

Hi there! Is IC50 for Cc1csc(CN2CC[C@H](N(C)c3cc(F)c(S(=O)(=O)Nc4cscn4)cc3C)C2)n1 below 9 µM, do you know?
label 0

Continuing:
Hi there! Is IC50 for CN(c1cc(F)c(S(=O)(=O)Nc2cscn2)cc1Cl)[C@H]1CCN(Cc2cnn(Cc3ccccc3)c2)C1 [Example 165, formate] below 9 µM, do you know?
label 1

Hi there! Is IC50 for CN(c1cc(F)c(S(=O)(=O)Nc2cscn2)cc1Cl)[C@H]1CCN(Cc2ccccc2O)C1 below 9 µM, do you know?
label 0
